Recorded measurements of MIC80, one per entry
System: Candida tropicalis
Test Description: Antifungal activity against Candida tropicalis
Assay type: functional
Entry rule: numbers only, all in µg/mL.

CN(Cc1ccc(-n2cnn(CC(=O)c3ccc(Cl)cc3Cl)c2=O)cc1)CC(O)(Cn1cncn1)c1ccc(F)cc1F (centres undefined) = 0.125
CN(Cc1ccccc1F)CC(O)(Cn1cncn1)c1ccc(F)cc1F (centres undefined) = 0.25
CN(Cc1ccc(-n2cnn(Cc3ccc(OC(F)(F)F)cc3)c2=O)cc1)CC(O)(Cn1cncn1)c1ccc(F)cc1F (centres undefined) = 0.0312

Turning now to a further record.
# get_value(readout= MIC80, system= Candida tropicalis) for CN(Cc1ccc(-n2cnn(Cc3ccccc3)c2=O)cc1)CC(O)(Cn1cncn1)c1ccc(F)cc1F (centres undefined) 1

----------
Recorded measurements of MIC80, one per entry
Tested on: Candida tropicalis
Test Description: Antifungal activity against Candida tropicalis
Assay type: functional
Entry rule: numbers only, all in µg/mL.

CN(Cc1ccc(-n2cnn(Cc3cccc(Cl)c3)c2=O)cc1)CC(O)(Cn1cncn1)c1ccc(F)cc1F (centres undefined) = 0.5
CN(Cc1ccc(NC(=O)c2ccc(Cl)cc2Cl)cc1)CC(O)(Cn1cncn1)c1ccc(F)cc1F (centres undefined) = 0.5

Turning now to a further record.
Entry CN(Cc1ccc(NC(=O)c2ccc(Cl)cc2)cc1)CC(O)(Cn1cncn1)c1ccc(F)cc1F (centres undefined) has what MIC80? 0.016

----------
Tested on: Trichophyton violaceum
Test Description: Antifungal activity against Trichophyton violaceum
Format: functional
Quantity Measured: MIC80 (µg/mL)
Entry rule: numbers only, all in µg/mL.

CN(Cc1ccccc1Cl)CC(O)(Cn1cncn1)c1ccc(F)cc1F (stereo unspecified) = 0.5
CN(Cc1cc(F)ccc1Br)CC(O)(Cn1cncn1)c1ccc(F)cc1F (stereo unspecified) = 4
OC(Cn1cncn1)(Cn1cncn1)c1ccc(F)cc1F = 32
CC(=O)N1CCN(c2ccc(OCC3COC(Cn4ccnc4)(c4ccc(Cl)cc4Cl)O3)cc2)CC1 (stereo unspecified) = 0.25
CN(Cc1ccc(Br)cc1F)CC(O)(Cn1cncn1)c1ccc(F)cc1F (stereo unspecified) = 2
CN(Cc1ccccc1F)CC(O)(Cn1cncn1)c1ccc(F)cc1F (stereo unspecified) = 2
CN(Cc1ccc(Cl)c(Cl)c1)CC(O)(Cn1cncn1)c1ccc(F)cc1F (stereo unspecified) = 4
CN(Cc1ccc(F)cc1Br)CC(O)(Cn1cncn1)c1ccc(F)cc1F (stereo unspecified) = 2

# get_value(readout= MIC80, system= Trichophyton violaceum) for CN(C/C=C/C#CC(C)(C)C)Cc1cccc2ccccc12 4

----------
Tested on: Candida tropicalis
Test Description: Antifungal activity against Candida tropicalis
Type: functional
Quantity Measured: MIC80 (µg/mL)
Entry rule: numbers only, all in µg/mL.

Completed entries (count: 2):
CN(Cc1ccc(-n2cnn(CC(=O)c3ccc(Cl)cc3)c2=O)cc1)CC(O)(Cn1cncn1)c1ccc(F)cc1F (stereo not given) = 0.0625
CN(Cc1ccc(NC(=O)c2ccc([N+](=O)[O-])cc2)cc1)CC(O)(Cn1cncn1)c1ccc(F)cc1F (stereo not given) = 0.5

# get_value(readout= MIC80, system= Candida tropicalis) for CCC(C)n1ncn(-c2ccc(N3CCN(c4ccc(OCC5COC(Cn6cncn6)(c6ccc(Cl)cc6Cl)O5)cc4)CC3)cc2)c1=O (stereo not given) 0.125

# get_value(readout= MIC80, system= Candida tropicalis) for CN(Cc1ccc(-n2cnn(CC(=O)c3ccccc3)c2=O)cc1)CC(O)(Cn1cncn1)c1ccc(F)cc1F (stereo not given) 0.0625

# get_value(readout= MIC80, system= Candida tropicalis) for CN(Cc1ccc(-n2cnn(Cc3ccc(F)cc3Br)c2=O)cc1)CC(O)(Cn1cncn1)c1ccc(F)cc1F (stereo not given) 0.125

----------
Tested on: Candida tropicalis
Test Description: Antifungal activity against Candida tropicalis
Format: functional
Quantity Measured: MIC80 (µg/mL)
Entry rule: numbers only, all in µg/mL.

Completed entries (count: 2):
CCc1ccc(Cn2ncn(-c3ccc(CN(C)CC(O)(Cn4cncn4)c4ccc(F)cc4F)cc3)c2=O)cc1 (configuration not stated) = 0.25
Cc1ccc(C(=O)Cn2ncn(-c3ccc(CN(C)CC(O)(Cn4cncn4)c4ccc(F)cc4F)cc3)c2=O)c(Cl)c1 (configuration not stated) = 0.0625

Entry Cc1cccc(Cn2ncn(-c3ccc(CN(C)CC(O)(Cn4cncn4)c4ccc(F)cc4F)cc3)c2=O)c1 (configuration not stated) has what MIC80? 0.125

Entry CN(Cc1ccc(-n2cnn(Cc3cccc(C(F)(F)F)c3)c2=O)cc1)CC(O)(Cn1cncn1)c1ccc(F)cc1F (configuration not stated) has what MIC80? 0.0625

Entry CN(Cc1ccc(NC(=O)c2ccccc2)cc1)CC(O)(Cn1cncn1)c1ccc(F)cc1F (configuration not stated) has what MIC80? 0.125

Entry CN(Cc1ccc(NC(=O)c2cccc([N+](=O)[O-])c2)cc1)CC(O)(Cn1cncn1)c1ccc(F)cc1F (configuration not stated) has what MIC80? 4

Entry CN(Cc1ccc(-n2cnn(Cc3ccc(Br)cc3)c2=O)cc1)CC(O)(Cn1cncn1)c1ccc(F)cc1F (configuration not stated) has what MIC80? 0.0625

Entry CCc1ccc(C(=O)Cn2ncn(-c3ccc(CN(C)CC(O)(Cn4cncn4)c4ccc(F)cc4F)cc3)c2=O)cc1 (configuration not stated) has what MIC80? 0.5

Entry CN(Cc1ccc(-n2cnn(CC(=O)c3ccc(Br)cc3)c2=O)cc1)CC(O)(Cn1cncn1)c1ccc(F)cc1F (configuration not stated) has what MIC80? 0.0625

Entry CN(Cc1ccc(-n2cnn(CC(=O)c3ccc(F)cc3)c2=O)cc1)CC(O)(Cn1cncn1)c1ccc(F)cc1F (configuration not stated) has what MIC80? 0.0625

Entry CN(Cc1ccc(-n2cnn(Cc3ccc([N+](=O)[O-])cc3)c2=O)cc1)CC(O)(Cn1cncn1)c1ccc(F)cc1F (configuration not stated) has what MIC80? 0.0625

Entry CN(Cc1ccc(-n2cnn(Cc3ccccc3Cl)c2=O)cc1)CC(O)(Cn1cncn1)c1ccc(F)cc1F (configuration not stated) has what MIC80? 0.125

Entry CN(Cc1ccc(-n2cnn(Cc3ccc(C(F)(F)F)cc3)c2=O)cc1)CC(O)(Cn1cncn1)c1ccc(F)cc1F (configuration not stated) has what MIC80? 0.0625

Entry CC(C)c1ccc(C(=O)Cn2ncn(-c3ccc(CN(C)CC(O)(Cn4cncn4)c4ccc(F)cc4F)cc3)c2=O)cc1 (configuration not stated) has what MIC80? 0.125

----------
Test system: Candida tropicalis
Test Description: Antifungal activity against Candida tropicalis
Assay type: functional
Please respond with y when measured MIC80 is strictly beneath 0.2 µg/mL, and with n in all other cases.

Reference set, count: 5
CN(Cc1ccc(Br)cc1F)CC(O)(Cn1cncn1)c1ccc(F)cc1F (stereo not given) = y
CC(=O)N1CCN(c2ccc(OCC3COC(Cn4ccnc4)(c4ccc(Cl)cc4Cl)O3)cc2)CC1 (stereo not given) = y
CN(C/C=C/C#CC(C)(C)C)Cc1cccc2ccccc12 = n
CN(Cc1ccc(N)cc1)CC(O)(Cn1cncn1)c1ccc(F)cc1F (stereo not given) = n
CN(Cc1ccc(-n2cnn(Cc3ccc(Cl)cc3)c2=O)cc1)CC(O)(Cn1cncn1)c1ccc(F)cc1F (stereo not given) = y

Problem: For the compound Cc1ccc(C(=O)Cn2ncn(-c3ccc(CN(C)CC(O)(Cn4cncn4)c4ccc(F)cc4F)cc3)c2=O)c(C)c1 (stereo not given) , is MIC80 under 0.2 µg/mL? y

Problem: For the compound CN(Cc1ccccc1[N+](=O)[O-])CC(O)(Cn1cncn1)c1ccc(F)cc1F (stereo not given) , is MIC80 under 0.2 µg/mL? n

Problem: For the compound CN(Cc1ccc(-n2cnn(Cc3ccc(C(C)(C)C)cc3)c2=O)cc1)CC(O)(Cn1cncn1)c1ccc(F)cc1F (stereo not given) , is MIC80 under 0.2 µg/mL? n

Problem: For the compound COc1ccc(C(=O)Cn2ncn(-c3ccc(CN(C)CC(O)(Cn4cncn4)c4ccc(F)cc4F)cc3)c2=O)cc1 (stereo not given) , is MIC80 under 0.2 µg/mL? y

Problem: For the compound CN(Cc1ccc(I)cc1)CC(O)(Cn1cncn1)c1ccc(F)cc1F (stereo not given) , is MIC80 under 0.2 µg/mL? y

Problem: For the compound CN(Cc1ccc(F)cc1Br)CC(O)(Cn1cncn1)c1ccc(F)cc1F (stereo not given) , is MIC80 under 0.2 µg/mL? y

----------
System: Candida tropicalis
Test Description: Antifungal activity against Candida tropicalis
Format: functional
Quantity Measured: MIC80

CN(Cc1cc(F)ccc1Br)CC(O)(Cn1cncn1)c1ccc(F)cc1F (stereo not drawn) = ≤ 0.125 µg/mL
CN(Cc1ccc(Cl)c(Cl)c1)CC(O)(Cn1cncn1)c1ccc(F)cc1F (stereo not drawn) = ≤ 0.125 µg/mL

Entry CN(Cc1cccc(I)c1)CC(O)(Cn1cncn1)c1ccc(F)cc1F (stereo not drawn) has what MIC80? ≤ 0.125 µg/mL

----------
Recorded measurements of MIC80, one per entry
Tested on: Candida tropicalis
Test Description: Antifungal activity against Candida tropicalis
Type: functional
Entry rule: numbers only, all in µg/mL.

CN(Cc1ccc(-n2cnn(Cc3ccc(Br)cc3F)c2=O)cc1)CC(O)(Cn1cncn1)c1ccc(F)cc1F (centres undefined) = 0.0625
Cc1ccc(Cn2ncn(-c3ccc(CN(C)CC(O)(Cn4cncn4)c4ccc(F)cc4F)cc3)c2=O)cc1 (centres undefined) = 0.5
Cc1ccc(C(=O)Nc2ccc(CN(C)CC(O)(Cn3cncn3)c3ccc(F)cc3F)cc2)cc1 (centres undefined) = 0.016
CN(Cc1cccc(C(F)(F)F)c1)CC(O)(Cn1cncn1)c1ccc(F)cc1F (centres undefined) = 0.25
CN(Cc1ccc(-n2cnn(Cc3cc(F)ccc3Br)c2=O)cc1)CC(O)(Cn1cncn1)c1ccc(F)cc1F (centres undefined) = 0.25

Entry OC(Cn1cncn1)(Cn1cncn1)c1ccc(F)cc1F has what MIC80? 0.5

Entry CN(Cc1ccc(-n2cnn(Cc3ccc(F)cc3)c2=O)cc1)CC(O)(Cn1cncn1)c1ccc(F)cc1F (centres undefined) has what MIC80? 1

Entry CN(Cc1ccc(-n2cnn(Cc3ccc(Cl)cc3Cl)c2=O)cc1)CC(O)(Cn1cncn1)c1ccc(F)cc1F (centres undefined) has what MIC80? 0.0625

Entry CN(Cc1ccc(-n2cnn(Cc3ccccc3F)c2=O)cc1)CC(O)(Cn1cncn1)c1ccc(F)cc1F (centres undefined) has what MIC80? 0.0625

Entry CN(Cc1ccc(-n2cnn(Cc3cccc(I)c3)c2=O)cc1)CC(O)(Cn1cncn1)c1ccc(F)cc1F (centres undefined) has what MIC80? 0.0625
